- Test system: anti-GBM nephritic mice
- assay.name: anti-GBM nephritic mice: proteinuria, serum cholesterol, blood urea nitrogen and serum creatinine;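 further: minus not effective plus trend double p<0.05 triple p<0.01 quadruple p<0.001 improvement vs control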
- Assay type: in vivo, BALB/c mice
- assay.setup: 11th day; oral
readout.name: Serum Parameter BUN (blood urea nitrogen)

{"molecule": "O=C(/C=C/c1cccnc1)NCC(=O)c1cccc(O)c1", "recorded.result": "-"}
{"molecule": "COc1ccc(C(CN(C)C(=O)/C=C/c2cccnc2)=NO)cc1OC", "recorded.result": "-"}
{"molecule": "CCOC(=O)COc1cccc(CCNC(=O)/C=C/c2cccnc2)c1 [Compound 99]", "recorded.result": "+"}

---

- System: anti-GBM nephritic mice
- assay.name: anti-GBM nephritic mice: proteinuria, serum cholesterol, blood urea nitrogen and serum creatinine;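 further: minus not effective plus trend double p<0.05 triple p<0.01 quadruple p<0.001 improvement vs control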
- Assay type: in vivo, BALB/c mice
- assay.setup: 11th day; oral
Structures can show the parent of a compound that is named as a salt.
readout.name: Serum Parameter S-Ch (serum cholesterol)

{"molecule": "CCOC(=O)COc1cccc(CCNC(=O)/C=C/c2cccnc2)c1 [Compound 100]", "target.or.test.system": "anti-GBM nephritic mice", "Serum Parameter S-Ch (serum cholesterol)": "+"}
{"molecule": "O=C(/C=C/c1cccnc1)NCCc1cc(O)ccc1O", "target.or.test.system": "anti-GBM nephritic mice", "Serum Parameter S-Ch (serum cholesterol)": "++"}
{"molecule": "O=C(/C=C/c1cccnc1)NCc1ccc(O)cc1", "target.or.test.system": "anti-GBM nephritic mice", "Serum Parameter S-Ch (serum cholesterol)": "+"}
{"molecule": "O=C(/C=C/c1cccnc1)NCc1cccc(O)c1", "target.or.test.system": "anti-GBM nephritic mice", "Serum Parameter S-Ch (serum cholesterol)": "-"}
{"molecule": "COc1ccc(CCN(C)C(=S)/C=C/c2cccnc2)cc1OC [Compound 135, hydrochloride]", "target.or.test.system": "anti-GBM nephritic mice", "Serum Parameter S-Ch (serum cholesterol)": "+"}

Hi team, please reply with Serum Parameter S-Ch (serum cholesterol) for each item in this list.
1. NC(=O)COc1cccc(CCNC(=O)/C=C/c2cccnc2)c1
2. COc1ccc(OC)c(CCNC(=O)/C=C/c2cccnc2)c1
3. COc1cc(CCN(C)C(=O)/C=C/c2cccnc2)ccc1O
4. CN(CCc1ccc(O)cc1)C(=O)/C=C/c1cccnc1

Response line:
["++", "++", "+++", "++"]
